Listed below: T/C values for each entry.
- Tested on: P388 leukemia ip, CD2F1 mice, survival T/C
- PROTOCOL SUMMARY: NCI In Vivo Anticancer Drug Screen. Data for tumor model P388 Leukemia (intraperitoneal) in CD2F1 (CDF1) mice
- EXPERIMENTAL SETUP: endpoint: median survival time; dose: 100.0 mg/kg/injection; schedule: Q01DX009 (ip); vehicle: saline with Tween-80; higher = longer survival
Toxic doses and inconclusive results are not listed.

Would you please look over these solved cases?
Ask: # returns recorded T/C (system: P388 leukemia ip, CD2F1 mice, survival T/C) for `CN(C#N)CCc1ccccc1`
Reply: 96 % of control

Ask: # returns recorded T/C (system: P388 leukemia ip, CD2F1 mice, survival T/C) for `O=c1cc(-c2ccccc2)[nH]c2c1CCCC2`
Reply: 116 % of control

Ask: # returns recorded T/C (system: P388 leukemia ip, CD2F1 mice, survival T/C) for `N=C(N)SCc1ccc(C(=O)NN2C(=O)c3ccccc3C2=O)cc1`
Reply: 92 % of control

Ask: # returns recorded T/C (system: P388 leukemia ip, CD2F1 mice, survival T/C) for CC(C)(C)NCC(O)c1ccc(O)c(NC=O)c1 (stereo unspecified)
Reply: 100 % of control

Ask: # returns recorded T/C (system: P388 leukemia ip, CD2F1 mice, survival T/C) for `Cn1c(=O)c2conc2n(-c2ccc(Cl)cc2)c1=O`
Reply: 95 % of control

Others:
Ask: # returns recorded T/C (system: P388 leukemia ip, CD2F1 mice, survival T/C) for `c1ccc(-c2nc3ccccc3o2)cc1`
Reply: 101 % of control
